ASSAYED_SYSTEM: rabbit albumin (rabbit, UniProt P49065 25-608)
Sequence (P49065 25-608 limits assumed): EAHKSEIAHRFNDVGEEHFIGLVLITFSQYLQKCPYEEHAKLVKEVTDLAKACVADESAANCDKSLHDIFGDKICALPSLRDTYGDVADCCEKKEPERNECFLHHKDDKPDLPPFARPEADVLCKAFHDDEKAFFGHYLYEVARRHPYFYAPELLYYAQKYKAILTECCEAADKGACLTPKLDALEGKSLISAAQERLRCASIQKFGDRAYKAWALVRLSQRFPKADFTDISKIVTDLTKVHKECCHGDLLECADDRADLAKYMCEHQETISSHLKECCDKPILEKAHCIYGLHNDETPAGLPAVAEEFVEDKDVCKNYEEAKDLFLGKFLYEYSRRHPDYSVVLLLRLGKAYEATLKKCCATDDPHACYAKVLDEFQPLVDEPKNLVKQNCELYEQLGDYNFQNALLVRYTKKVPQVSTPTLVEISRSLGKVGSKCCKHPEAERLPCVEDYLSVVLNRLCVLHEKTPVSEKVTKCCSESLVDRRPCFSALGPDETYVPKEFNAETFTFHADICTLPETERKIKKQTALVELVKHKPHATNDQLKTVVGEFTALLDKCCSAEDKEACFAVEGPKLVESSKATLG
EXPERIMENTAL_PROTOCOL: SA08b binding assay: competition with biotinylated SA08b for immobilized albumin
Bridges are numbered along the chain shown (N, C = ends). Where no end group is shown, it is not given here. code n = not defined here
VALUE_TYPE: pIC50
# pIC50: negative log10 of molar concentration; output just the value

Please review the entries below; each comes with its answer.
{"BINDER": "MEDICLPRWGCLWED-{code n} (disulfide 5-11 (inferred); reading uncertain; also: printed as Met-Glu-Asp-Ile-Cys-Leu-Pro-Arg-Trp-Gly-Cys-Leu-Trp-Glu-Asp, synthesized peptide) [SA05]", "VAL": 6.09}
{"BINDER": "QRLMEDICLPRWGCLWEDDF-{code n} (disulfide 8-14 (inferred); not fully specified; reading uncertain, synthesized peptide; also called Peptide SA06) [SA06]", "VAL": 6.89}
{"BINDER": "QGLIGDICLPRWGCLWGDSV-{code n} (disulfide 8-14 (inferred); reading uncertain; also: printed as Gln-Gly-Leu-Ile-Gly-Asp-Ile-Cys-Leu-Pro-Arg-Trp-Gly-Cys-Leu-Trp-Gly-Asp-Ser-Val, synthesized peptide) [SA07]", "VAL": 7.52}

Proceed to the following item.
Problem: Name the reported pIC50 value associated with the binder Ac-QGLIGDICLPRWGCLWGDSVK-{code n} (disulfide 8-14 (inferred); reading uncertain; also: printed as Gln-Gly-Leu-Ile-Gly-Asp-Ile-Cys-Leu-Pro-Arg-Trp-Gly-Cys-Leu-Trp-Gly-Asp-Ser-Val-Lys, synthesized peptide; not biotinylated form of SA08b; also called SA08 peptide) [SA08]
Result: 7.20

Data origin: patent US20040253247A1
